Biological target: B1R receptor of the rat (rB1R) (Rattus norvegicus)
Construct: expressed in transfected cells; host or cells: CHO K1 cells (Chinese hamster ovary), stably transfected
Sequence (P97583 whole entry): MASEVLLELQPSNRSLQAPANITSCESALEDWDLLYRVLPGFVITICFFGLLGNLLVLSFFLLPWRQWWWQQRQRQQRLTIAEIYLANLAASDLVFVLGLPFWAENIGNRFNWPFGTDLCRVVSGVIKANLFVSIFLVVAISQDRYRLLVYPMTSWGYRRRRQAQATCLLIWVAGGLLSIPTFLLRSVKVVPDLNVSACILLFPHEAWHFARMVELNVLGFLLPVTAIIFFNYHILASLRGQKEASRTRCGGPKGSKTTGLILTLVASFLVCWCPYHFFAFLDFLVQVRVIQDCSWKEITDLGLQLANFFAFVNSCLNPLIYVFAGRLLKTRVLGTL
Experiment: Functional FLIPR Ca2+ assay on the bradykinin 1 receptor, rat (rB1R CHO K1 cells)
Type: cell-based
Settings: test substance 10 μM; CHO K1 cells transfected with rat B1R gene; agonist Des-Arg9-bradykinin at EC80; % inhibition compared with maximum achievable inhibition; read-out: B1R antagonism, rat [10 μM] % inhibition
measured.metric: inhibition at 10 µM (%)
Please reply with the bare figure in % and do not write the unit itself.

Please review the entries below; each comes with its answer.
| compound | experimental.target | inhibition at 10 µM / % |
| --- | --- | --- |
| Cc1cc(S(=O)(=O)N2CCCCC2CCC(=O)N2CCc3sccc3C2c2ccncc2)c(C)cc1Cl (stereo not shown) [Example 55] | B1R receptor of the rat (rB1R) (Rattus norvegicus) | 103 |
| COc1cc(C)c(S(=O)(=O)N2c3ccccc3CC[C@H]2COCC(=O)N2CCc3onc(-c4ccncc4)c3C2)c(C)c1 [Example 125] | B1R receptor of the rat (rB1R) (Rattus norvegicus) | 102 |
| O=C(CC1CCCCN1S(=O)(=O)c1cccc(C(F)(F)F)c1)N1CCc2sccc2C1c1ccc(F)cc1 (stereo not shown) [Example 19] | B1R receptor of the rat (rB1R) (Rattus norvegicus) | 83 |
| COc1cc(C)c(S(=O)(=O)N2CCCCC2CCC(=O)N2CCc3nc(-c4ccncc4)sc3C2)c(C)c1 (stereo not shown) [Example 52] | B1R receptor of the rat (rB1R) (Rattus norvegicus) | 95 |

Request: // fetch inhibition at 10 µM; item: COc1cc(C)c(S(=O)(=O)N(CCOCC(=O)N2CCc3sc(CN4CCN(C)CC4)cc3C2)Cc2ccccc2)c(C)c1 [Example 81] ; system: B1R receptor of the rat (rB1R) (Rattus norvegicus)
Result: 102

Request: // fetch inhibition at 10 µM; item: COc1cc(C)c(S(=O)(=O)N(C)CCOCC(=O)N2CCc3onc(CN4CCOCC4)c3C2)c(C)c1 [Example 30] ; system: B1R receptor of the rat (rB1R) (Rattus norvegicus)
Result: 104

Request: // fetch inhibition at 10 µM; item: Cc1cc(S(=O)(=O)N2CCCCC2CCC(=O)N2CCc3onc(C(=O)N4CCCCC4)c3C2)c(C)cc1Cl (stereo not shown) [Example 04] ; system: B1R receptor of the rat (rB1R) (Rattus norvegicus)
Result: 56

###

Biological target: B1R receptor of the rat (rB1R) (Rattus norvegicus)
Construct: expressed in transfected cells; host or cells: CHO K1 cells (Chinese hamster ovary), stably transfected
Assay: Functional FLIPR Ca2+ assay on the bradykinin 1 receptor, rat (rB1R CHO K1 cells)
Format: cell-based
Conditions: test substance 10 μM; CHO K1 cells transfected with rat B1R gene; agonist Des-Arg9-bradykinin at EC80; % inhibition compared with maximum achievable inhibition; read-out: B1R antagonism, rat [10 μM] % inhibition
measured.metric: inhibition at 10 µM (%)
Please reply with the bare figure in % and do not write the unit itself.

Please review the entries below; each comes with its answer.
| molecule | inhibition at 10 µM [%] |
| --- | --- |
| Cc1cc(S(=O)(=O)N2CCCCC2CCC(=O)N2CCc3sccc3C2c2ccc(Cl)nc2)c(C)cc1Cl (stereo not shown) [Example 33] | 35 |
| Cc1cc(S(=O)(=O)N2CCCCC2CCC(=O)N2CCc3onc(CN4CCCCC4)c3C2)c(C)cc1Cl (stereo not shown) [Example 06] | 57 |
| COc1cc(C)c(S(=O)(=O)N2CCCCC2COCC(=O)N2CCc3sc(CN4CCCCC4)cc3C2)c(C)c1 (stereo not shown) [Example 27] | 106 |

# next molecule below
Request: Supply inhibition at 10 µM value. Item: COc1cc(C)c(S(=O)(=O)N2CCCCC2COCC(=O)N2CCc3nc(Cc4ccncc4)sc3C2)c(C)c1 (stereo not shown) [Example 38]
Result: 97
